pEC50 by entry:
test: Bocillin-FL fluorescence polarization competition binding assay, A. baumannii PBP3; conditions: fluorescence polarization competition binding assay using Bocillin-FL; column 3; read-out: 4. baumannii PBP1a Potency
pEC50: −log10 of the molar value.

molecule | pEC50
C[C@@H](O)[C@@H](NC(=O)N1CCN(CCNC(=O)c2c(F)cc(O)c(O)c2Cl)C(=O)C1=O)C(=O)N[C@H]1Cc2ccc(F)c(C(=O)O)c2OB1O | 4.00 to 4.52
NCCN1CCN(C(=O)N[C@@H](C(=O)N[C@H]2Cc3ccc(F)c(C(=O)O)c3OB2O)c2cc(F)c(O)c(O)c2Cl)C(=O)C1=O (single isomer, unassigned) | < 4.00
CCN1CCN(C(=O)N[C@@H](C(=O)N[C@H]2Cc3cccc(C(=O)O)c3OB2O)c2c(O)cc(O)cc2F)C(=O)C1=O (single isomer, unassigned) | < 4.00
O=C(NCCN1CCN(C(=O)NC(C(=O)N[C@H]2Cc3ccc(F)c(C(=O)O)c3OB2O)c2ncc(O)cc2F)C(=O)C1=O)c1c(F)cc(O)c(O)c1Cl (some centres unmarked) | > 5.00
NCCCN1CCN(C(=O)N[C@@H](C(=O)N[C@H]2Cc3ccc(F)c(C(=O)O)c3OB2O)c2c(F)cc(O)c(O)c2F)C(=O)C1=O (single isomer, unassigned) | 4.00 to 4.52
NCCCN1CCN(C(=O)N[C@@H](C(=O)N[C@H]2Cc3ccc(F)c(C(=O)O)c3OB2O)c2c(F)c(F)c(O)c(O)c2Cl)C(=O)C1=O | < 4.00
CCN1CCN(C(=O)NC(C(=O)N[C@H]2Cc3cccc(C(=O)O)c3OB2O)c2c(F)cc(N)cc2F)C(=O)C1=O (some centres unmarked) | < 4.00
NCCCN1CCN(C(=O)N[C@@H](C(=O)N[C@H]2Cc3ccc(F)c(C(=O)O)c3OB2O)c2cc(F)c(O)c(O)c2Cl)C(=O)C1=O (single isomer, unassigned) | < 4.00
CCN1CCN(C(=O)NC(C(=O)N[C@H]2Cc3cccc(C(=O)O)c3OB2O)c2c(F)cc(NC(C)=O)cc2F)C(=O)C1=O (some centres unmarked) | > 5.00
C[C@H]1CN(CCNC(=O)c2ccc(O)c(O)c2Cl)C(=O)C(=O)N1C(=O)NC(C(=O)N[C@H]1Cc2cccc(C(=O)O)c2OB1O)c1ncc(O)cc1F (some centres unmarked) | > 5.00
CS(=O)(=O)N1CCN(C(=O)NC(C(=O)N[C@H]2Cc3ccc(F)c(C(=O)O)c3OB2O)c2c(Cl)cc(O)c(O)c2F)C1=O (some centres unmarked) | 4.00 to 4.52
NC1(CN2CCN(C(=O)N[C@@H](C(=O)N[C@H]3Cc4ccc(F)c(C(=O)O)c4OB3O)c3c(F)cc(O)c(O)c3Cl)C(=O)C2=O)CC1 (single isomer, unassigned) | > 5.00
Nc1nc(/C(=N/OC[C@H](NC(=O)c2ccc(O)c(O)c2Cl)C(=O)O)C(=O)N[C@H]2Cc3cccc(C(=O)O)c3OB2O)cs1 | < 4.00
CCN1CCN(C(=O)NC(C(=O)N[C@H]2Cc3ccc(F)c(C(=O)O)c3OB2O)c2cc(F)c(O)c(O)c2Cl)C(=O)C1=O (some centres unmarked) | 4.00 to 4.52
CCN1CCN(C(=O)N[C@@H](C(=O)N[C@H]2Cc3cc(Cl)c(F)c(C(=O)O)c3OB2O)c2c(F)cc(O)c(O)c2Cl)C(=O)C1=O | 4.00 to 4.52
NCCN1CCN(C(=O)N[C@@H](C(=O)N[C@H]2Cc3cccc(C(=O)O)c3OB2O)c2ccc(O)cc2Cl)C(=O)C1=O (single isomer, unassigned) | 4.52 to 5.00
CCN1CCN(C(=O)N[C@H](C(=O)N[C@H]2Cc3ccc(F)c(C(=O)O)c3OB2O)c2ccc(O)c(O)c2)C(=O)C1=O | < 4.00

* * *

system: N. gonorrhoeae WHO Q; assay: Liquid broth MIC in Fastidious broth; format: cell-based; settings: Neisseria gonorrhoeae, read-out: Minimum Inhibitory Concentration, WHO Q
MIC by entry:

compound | MIC
NCCN1CCN(C(=O)N[C@H](C(=O)N[C@H]2Cc3cccc(C(=O)O)c3OB2O)c2c(F)cccc2Cl)C(=O)C1=O (single isomer, unassigned) [Example 206] | > 64 µg/mL
CCN1CCN(C(=O)N[C@H](C(=O)N[C@H]2Cc3ccc(F)c(C(=O)O)c3OB2O)c2ccc(O)c(O)c2)C(=O)C1=O [Example 210] | > 64 µg/mL
CCN1CCN(C(=O)NC(C(=O)N[C@H]2Cc3cccc(C(=O)O)c3OB2O)c2ccc(C(=O)O)c(Cl)c2Cl)C(=O)C1=O (stereo partly drawn) [Example 201] | 16 to 32 µg/mL

* * *

MIC by entry:
tested on: N. gonorrhoeae WHO G; experiment: Liquid broth MIC in Fastidious broth; type: cell-based; details: Neisseria gonorrhoeae; N. gonorrhoeae strain WHO G; Fastidious broth; read-out: Minimum Inhibitory Concentration, N. gonorrhoeae WHO G
observationType: MIC

compound | observationType | val
CCN1CCN(C(=O)NC(C(=O)N[C@H]2Cc3cccc(C(=O)O)c3OB2O)c2cccc(N)c2)C(=O)C1=O (stereo partly drawn) | MIC | 1 to 2 µg/mL
NCCN1CCN(C(=O)N[C@H](C(=O)N[C@H]2Cc3cccc(C(=O)O)c3OB2O)c2cc(Cl)c(O)c(Cl)c2)C(=O)C1=O (single isomer, unassigned) | MIC | > 64 µg/mL
CCN1CCN(C(=O)NC(C(=O)N[C@H]2Cc3cccc(C(=O)O)c3OB2O)c2cc(F)c(O)cc2F)C(=O)C1=O (stereo partly drawn) | MIC | 1 to 2 µg/mL
CCN1CCN(C(=O)N[C@@H](C(=O)N[C@H]2Cc3cccc(C(=O)O)c3OB2O)c2ccc(C(=O)O)c(Cl)c2)C(=O)C1=O (single isomer, unassigned) | MIC | 0.25 to 0.5 µg/mL
O=C(O)c1ccc(C(NC(=O)c2ccc(O)c(O)c2Cl)C(=O)N[C@H]2Cc3cccc(C(=O)O)c3OB2O)cc1F (stereo partly drawn) | MIC | > 64 µg/mL
CCN1CCN(C(=O)NC(C(=O)N[C@H]2Cc3cccc(C(=O)O)c3OB2O)c2cc(Cl)c(C(=O)O)cc2F)C(=O)C1=O (stereo partly drawn) | MIC | 1 to 2 µg/mL

* * *

Reported values: MIC for K. pneumoniae 848844 producing SHV-11 and KPC-2, one per item.
observationType: MIC

compound | experimentalTarget | val
CCN1CCN(C(=O)NC(C(=O)N[C@H]2Cc3ccc(O)c(C(=O)O)c3OB2O)c2ccccc2)C(=O)C1=O (some centres unmarked) | K. pneumoniae 848844 producing SHV-11 and KPC-2 | > 128 µg/mL
CCN1CCN(C(=O)NC(C(=O)N[C@H]2Cc3cccc(C(=O)O)c3OB2O)c2ccc(C(=O)O)c(Cl)c2Cl)C(=O)C1=O (some centres unmarked) | K. pneumoniae 848844 producing SHV-11 and KPC-2 | > 128 µg/mL
C[C@H]1CN(CCF)C(=O)C(=O)N1C(=O)NC(C(=O)N[C@H]1Cc2cccc(C(=O)O)c2OB1O)c1c(F)cc(O)cc1F (some centres unmarked) | K. pneumoniae 848844 producing SHV-11 and KPC-2 | 8 to 16 µg/mL
CCN1CCN(C(=O)NC(C(=O)N[C@H]2Cc3cccc(C(=O)O)c3OB2O)c2cccc(NS(C)(=O)=O)c2)C(=O)C1=O (some centres unmarked) | K. pneumoniae 848844 producing SHV-11 and KPC-2 | > 128 µg/mL
CCN1CCN(C(=O)N[C@H](C(=O)N[C@H]2Cc3cccc(C(=O)O)c3OB2O)c2cc(O)cc(O)c2)C(=O)C1=O (single isomer, unassigned) | K. pneumoniae 848844 producing SHV-11 and KPC-2 | > 128 µg/mL
NCCN1CCN(C(=O)N[C@@H](C(=O)N[C@H]2Cc3cccc(C(=O)O)c3OB2O)c2ccc(O)cc2Cl)C(=O)C1=O (single isomer, unassigned) | K. pneumoniae 848844 producing SHV-11 and KPC-2 | 32 to 64 µg/mL
NC1(CN2CCN(C(=O)N[C@@H](C(=O)N[C@H]3Cc4cccc(C(=O)O)c4OB3O)c3cc(F)c(O)c(F)c3F)C(=O)C2=O)CC1 (single isomer, unassigned) | K. pneumoniae 848844 producing SHV-11 and KPC-2 | 32 to 64 µg/mL
CCN1CCN(C(=O)NC(C(=O)N[C@H]2Cc3cccc(C(=O)O)c3OB2O)c2cc(O)ccc2O)C(=O)C1=O (some centres unmarked) | K. pneumoniae 848844 producing SHV-11 and KPC-2 | > 128 µg/mL
CS(=O)(=O)N1CCN(C(=O)N[C@@H](C(=O)N[C@H]2Cc3cccc(C(=O)O)c3OB2O)c2c(F)cc(O)cc2F)C1=O (single isomer, unassigned) | K. pneumoniae 848844 producing SHV-11 and KPC-2 | 32 to 64 µg/mL
NCCN1CCN(C(=O)NC(C(=O)N[C@H]2Cc3cccc(C(=O)O)c3OB2O)c2cc(F)c(O)cc2F)C(=O)C1=O (some centres unmarked) | K. pneumoniae 848844 producing SHV-11 and KPC-2 | 32 to 64 µg/mL
NCCCN1CCN(C(=O)N[C@H](C(=O)N[C@H]2Cc3cccc(C(=O)O)c3OB2O)c2cccc(NS(N)(=O)=O)c2)C(=O)C1=O | K. pneumoniae 848844 producing SHV-11 and KPC-2 | > 128 µg/mL
CCN1CCN(C(=O)NC(C(=O)N[C@H]2Cc3cccc(C(=O)O)c3OB2O)c2cccc(C(=O)O)c2)C(=O)C1=O (some centres unmarked) | K. pneumoniae 848844 producing SHV-11 and KPC-2 | > 128 µg/mL
CCN1CCN(C(=O)NC(C(=O)N[C@H]2Cc3cccc(C(=O)O)c3OB2O)c2ccc(C(=O)O)cc2F)C(=O)C1=O (some centres unmarked) | K. pneumoniae 848844 producing SHV-11 and KPC-2 | > 128 µg/mL
NCCN1CCN(C(=O)N[C@@H](C(=O)N[C@H]2Cc3cccc(C(=O)O)c3OB2O)c2c(F)cc(O)cc2F)C(=O)C1=O (single isomer, unassigned) | K. pneumoniae 848844 producing SHV-11 and KPC-2 | 8 to 16 µg/mL
CCN1CCN(C(=O)N[C@@H](C(=O)N[C@H]2Cc3cccc(C(=O)O)c3OB2O)c2ccc(C(=O)O)cc2O)C(=O)C1=O (single isomer, unassigned) | K. pneumoniae 848844 producing SHV-11 and KPC-2 | > 128 µg/mL
CCN1CCN(C(=O)NC(C(=O)N[C@H]2Cc3ccc(F)c(C(=O)O)c3OB2O)c2ccc(C(=O)O)cc2)C(=O)C1=O (some centres unmarked) | K. pneumoniae 848844 producing SHV-11 and KPC-2 | > 128 µg/mL
CCN1CCN(C(=O)NC(C(=O)N[C@H]2Cc3cccc(C(=O)O)c3OB2O)c2ccc(C(=O)O)c(F)c2)C(=O)C1=O (some centres unmarked) | K. pneumoniae 848844 producing SHV-11 and KPC-2 | > 128 µg/mL
CCN1CCN(C(=O)NC(C(=O)N[C@H]2Cc3cccc(C(=O)O)c3OB2O)c2c(F)c(O)cc(O)c2F)C(=O)C1=O (some centres unmarked) | K. pneumoniae 848844 producing SHV-11 and KPC-2 | > 128 µg/mL
CS(=O)(=O)N1CCN(C(=O)N[C@@H](C(=O)N[C@H]2Cc3ccc(F)c(C(=O)O)c3OB2O)c2cc(F)c(O)c(O)c2Cl)C1=O (single isomer, unassigned) | K. pneumoniae 848844 producing SHV-11 and KPC-2 | 2 to 4 µg/mL
NS(=O)(=O)NC(C(=O)N[C@H]1Cc2ccc(F)c(C(=O)O)c2OB1O)c1ncc(O)cc1F (some centres unmarked) | K. pneumoniae 848844 producing SHV-11 and KPC-2 | > 128 µg/mL
CCN1CCN(C(=O)NC(C(=O)N[C@H]2Cc3ccc(F)c(C(=O)O)c3OB2O)c2nc(N)sc2F)C(=O)C1=O (some centres unmarked) | K. pneumoniae 848844 producing SHV-11 and KPC-2 | 32 to 64 µg/mL
CCN1CCN(C(=O)NC(C(=O)N[C@H]2Cc3cccc(C(=O)O)c3OB2O)c2cc(F)c(O)cc2Cl)C(=O)C1=O (some centres unmarked) | K. pneumoniae 848844 producing SHV-11 and KPC-2 | > 128 µg/mL
NCCN1CCN(C(=O)N[C@@H](C(=O)N[C@H]2Cc3cccc(C(=O)O)c3OB2O)c2cc(Cl)c(O)c(Cl)c2)C(=O)C1=O (single isomer, unassigned) | K. pneumoniae 848844 producing SHV-11 and KPC-2 | 32 to 64 µg/mL
O=C(O)c1cccc2c1OB(O)[C@@H](NC(=O)C(NC(=O)N1CCN(CCF)C(=O)C1=O)c1ccc(O)c(F)c1F)C2 (some centres unmarked) | K. pneumoniae 848844 producing SHV-11 and KPC-2 | 32 to 64 µg/mL
C[C@H]1CN(CCN)C(=O)C(=O)N1C(=O)NC(C(=O)N[C@H]1Cc2cccc(C(=O)O)c2OB1O)c1c(F)cc(O)cc1F (some centres unmarked) | K. pneumoniae 848844 producing SHV-11 and KPC-2 | 8 to 16 µg/mL
NCCN1CCN(C(=O)N[C@@H](C(=O)N[C@H]2Cc3cccc(C(=O)O)c3OB2O)c2ccc(O)c(Cl)c2F)C(=O)C1=O (single isomer, unassigned) | K. pneumoniae 848844 producing SHV-11 and KPC-2 | 32 to 64 µg/mL
